Give pIC50 for every item shown.
Assay: Inhibition of recombinant human MAPK expressed in Escherichia coli assessed as reduction in MEK-1 phosphorylation incubated for 60 mins by ELISA assay
Answers are plain numbers, as −log10 of the molar value.

NC1=N/C(=C2\CCNC(=O)c3[nH]c(Br)cc32)C(=O)N1 = 8.52

Ask: Could you tell me which pIC50 is on file for NC1=NC(=O)/C(=C2\CCNC(=O)c3[nH]c(Br)cc32)N1 [HYMENIALDISINE] ?
Result: 8.22

* * *

Biological target: Epidermal growth factor receptor (Homo sapiens, UniProt P00533)
Sequence (P00533 whole entry): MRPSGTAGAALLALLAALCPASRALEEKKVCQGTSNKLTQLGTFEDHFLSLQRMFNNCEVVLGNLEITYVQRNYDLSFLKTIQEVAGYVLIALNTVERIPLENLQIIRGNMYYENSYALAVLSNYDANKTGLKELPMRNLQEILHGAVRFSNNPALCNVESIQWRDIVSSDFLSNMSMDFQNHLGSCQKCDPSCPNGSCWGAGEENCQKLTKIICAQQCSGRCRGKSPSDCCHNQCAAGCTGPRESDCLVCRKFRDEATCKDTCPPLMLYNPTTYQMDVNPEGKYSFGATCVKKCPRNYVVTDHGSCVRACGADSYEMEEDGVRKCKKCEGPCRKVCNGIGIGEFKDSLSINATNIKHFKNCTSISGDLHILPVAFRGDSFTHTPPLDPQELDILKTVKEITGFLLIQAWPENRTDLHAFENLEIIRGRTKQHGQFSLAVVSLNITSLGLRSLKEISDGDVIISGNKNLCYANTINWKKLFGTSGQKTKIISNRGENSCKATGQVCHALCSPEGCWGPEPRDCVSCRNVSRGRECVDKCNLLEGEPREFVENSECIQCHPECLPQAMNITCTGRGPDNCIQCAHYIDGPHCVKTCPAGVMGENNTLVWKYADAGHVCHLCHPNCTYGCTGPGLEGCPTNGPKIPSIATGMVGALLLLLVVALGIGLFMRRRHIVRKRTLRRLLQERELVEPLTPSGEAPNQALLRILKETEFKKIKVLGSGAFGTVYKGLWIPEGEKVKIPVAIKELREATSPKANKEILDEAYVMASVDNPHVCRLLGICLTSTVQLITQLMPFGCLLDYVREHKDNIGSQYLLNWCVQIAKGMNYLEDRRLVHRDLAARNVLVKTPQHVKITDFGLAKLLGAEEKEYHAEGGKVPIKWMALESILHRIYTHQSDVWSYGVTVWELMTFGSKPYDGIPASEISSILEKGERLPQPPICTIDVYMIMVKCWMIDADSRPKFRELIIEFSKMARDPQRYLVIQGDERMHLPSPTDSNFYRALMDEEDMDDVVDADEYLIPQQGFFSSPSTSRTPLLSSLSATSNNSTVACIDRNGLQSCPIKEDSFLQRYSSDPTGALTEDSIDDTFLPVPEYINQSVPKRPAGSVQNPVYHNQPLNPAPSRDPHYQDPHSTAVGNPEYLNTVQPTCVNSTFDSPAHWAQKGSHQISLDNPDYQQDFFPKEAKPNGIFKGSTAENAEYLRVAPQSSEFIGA
QUANTITY MEASURED: IC50 (µM)
Answers are plain numbers, in µM.

Ask: GET /values?readout=IC50&system=Epidermal growth factor receptor (Homo sapiens, UniProt P00533)&item= N=C1N=C(NCCS(=O)(=O)O)/C(=C/C(O)CNC(=O)c2cc(Br)c(Br)[nH]2)N1 (mixture of isomers)
Result: 44.6

* * *

Test system: SNU-638
Assay: Antiproliferative activity against human SNU-638 cells incubated for 72 hrs by SRB assay
Assay type: functional, cell-based
Conditions: SNU-638, 72 h
QUANTITY MEASURED: IC50 (µM)
Answers are plain numbers, in µM.

Ask: Could you tell me which IC50 is on file for NC1=NC(=O)C([C@@H]2[C@@H](CNC(=O)c3cc(Br)c[nH]3)[C@H](CNC(=O)c3cc(Br)c[nH]3)[C@H]2C2NC(N)=NC2=O)N1 (stereo partly specified) ?
Result: 7.92

* * *

Assay: Displacement of [125I]-somatostatin from somatostatin (unknown origin) incubated for 60 mins by gamma scintillation counter analysis
Set-up: species or system Homo sapiens
Give IC50 for every item shown.
Give bare numbers, in nM.

NC1=NC2C[C@H](CNC(=O)c3cc(Br)c[nH]3)[C@@H](CNC(=O)c3cc(Br)c[nH]3)[C@H](c3nc(N)c[nH]3)C2N1 (some centres not stated) = 2200

Ask: Could you tell me which IC50 is on file for `Nc1nc([C@H]2[C@H](CNC(=O)c3cc(Br)c[nH]3)[C@@H](CNC(=O)c3cc(Br)c[nH]3)[C@@H]2c2c[nH]c(N)n2)c[nH]1` ?
Result: 270

* * *

Record: pIC50 reported on Receptor tyrosine-protein kinase erbB-2 (Homo sapiens).
Sequence (P04626 whole entry): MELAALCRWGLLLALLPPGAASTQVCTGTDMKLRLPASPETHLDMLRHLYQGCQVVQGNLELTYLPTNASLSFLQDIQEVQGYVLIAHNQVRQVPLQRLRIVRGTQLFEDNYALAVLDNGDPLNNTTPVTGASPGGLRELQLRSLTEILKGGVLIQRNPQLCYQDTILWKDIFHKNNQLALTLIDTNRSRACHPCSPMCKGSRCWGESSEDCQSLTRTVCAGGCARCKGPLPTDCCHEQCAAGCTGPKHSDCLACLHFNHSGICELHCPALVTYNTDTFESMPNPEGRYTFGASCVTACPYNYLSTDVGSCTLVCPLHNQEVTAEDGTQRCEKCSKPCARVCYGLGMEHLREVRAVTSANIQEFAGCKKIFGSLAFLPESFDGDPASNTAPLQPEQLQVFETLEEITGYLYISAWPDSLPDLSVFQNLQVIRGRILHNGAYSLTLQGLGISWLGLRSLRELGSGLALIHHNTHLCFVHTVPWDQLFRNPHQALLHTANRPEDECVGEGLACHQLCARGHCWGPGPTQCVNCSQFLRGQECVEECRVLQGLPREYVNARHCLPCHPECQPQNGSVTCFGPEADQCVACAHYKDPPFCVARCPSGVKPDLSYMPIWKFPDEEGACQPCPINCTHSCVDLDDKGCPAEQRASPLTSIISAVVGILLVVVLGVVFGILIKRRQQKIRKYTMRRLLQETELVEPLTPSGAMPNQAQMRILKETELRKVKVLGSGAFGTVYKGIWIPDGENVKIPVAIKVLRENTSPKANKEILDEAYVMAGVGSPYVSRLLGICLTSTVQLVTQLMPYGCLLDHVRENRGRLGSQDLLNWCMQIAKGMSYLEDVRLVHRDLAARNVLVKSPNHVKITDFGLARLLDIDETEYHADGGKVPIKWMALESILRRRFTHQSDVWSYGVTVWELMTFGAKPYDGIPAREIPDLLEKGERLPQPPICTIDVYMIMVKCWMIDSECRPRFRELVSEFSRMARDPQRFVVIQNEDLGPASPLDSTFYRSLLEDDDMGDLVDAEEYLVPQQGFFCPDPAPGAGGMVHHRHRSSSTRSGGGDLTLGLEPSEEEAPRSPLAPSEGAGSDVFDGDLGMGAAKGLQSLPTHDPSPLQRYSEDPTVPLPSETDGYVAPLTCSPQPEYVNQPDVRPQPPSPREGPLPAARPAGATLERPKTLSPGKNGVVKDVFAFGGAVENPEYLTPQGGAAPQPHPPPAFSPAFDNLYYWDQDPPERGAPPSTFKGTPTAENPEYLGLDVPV
One number for each entry, as −log10 of the molar value.

N=C1N=C(NCCS(=O)(=O)O)/C(=C/C(O)CNC(=O)c2cc(Br)c(Br)[nH]2)N1 (mixture of isomers) [TAUROACIDIN A] = 4.42

Ask: GET /values?readout=pIC50&system=Receptor tyrosine-protein kinase erbB-2 (Homo sapiens)&item= `N=C1NC(=O)/C(=C2/CCNC(=O)c3[nH]c(Br)c(Br)c32)N1`
Result: 4.68

* * *

Tested on: K562
Assay: Cytotoxicity against human K562 cells by MTT assay
Type: functional, cell-based
QUANTITY MEASURED: IC50

Ask: Could you tell me which IC50 is on file for `O=C1NC(=O)/C(=C/CCNC(=O)c2[nH]cc(Br)c2Br)N1` ?
Result: 6.1 µM

* * *

Molecular target: E3 ubiquitin-protein ligase CBL-B (Homo sapiens, UniProt Q13191)
Sequence (Q13191 whole entry): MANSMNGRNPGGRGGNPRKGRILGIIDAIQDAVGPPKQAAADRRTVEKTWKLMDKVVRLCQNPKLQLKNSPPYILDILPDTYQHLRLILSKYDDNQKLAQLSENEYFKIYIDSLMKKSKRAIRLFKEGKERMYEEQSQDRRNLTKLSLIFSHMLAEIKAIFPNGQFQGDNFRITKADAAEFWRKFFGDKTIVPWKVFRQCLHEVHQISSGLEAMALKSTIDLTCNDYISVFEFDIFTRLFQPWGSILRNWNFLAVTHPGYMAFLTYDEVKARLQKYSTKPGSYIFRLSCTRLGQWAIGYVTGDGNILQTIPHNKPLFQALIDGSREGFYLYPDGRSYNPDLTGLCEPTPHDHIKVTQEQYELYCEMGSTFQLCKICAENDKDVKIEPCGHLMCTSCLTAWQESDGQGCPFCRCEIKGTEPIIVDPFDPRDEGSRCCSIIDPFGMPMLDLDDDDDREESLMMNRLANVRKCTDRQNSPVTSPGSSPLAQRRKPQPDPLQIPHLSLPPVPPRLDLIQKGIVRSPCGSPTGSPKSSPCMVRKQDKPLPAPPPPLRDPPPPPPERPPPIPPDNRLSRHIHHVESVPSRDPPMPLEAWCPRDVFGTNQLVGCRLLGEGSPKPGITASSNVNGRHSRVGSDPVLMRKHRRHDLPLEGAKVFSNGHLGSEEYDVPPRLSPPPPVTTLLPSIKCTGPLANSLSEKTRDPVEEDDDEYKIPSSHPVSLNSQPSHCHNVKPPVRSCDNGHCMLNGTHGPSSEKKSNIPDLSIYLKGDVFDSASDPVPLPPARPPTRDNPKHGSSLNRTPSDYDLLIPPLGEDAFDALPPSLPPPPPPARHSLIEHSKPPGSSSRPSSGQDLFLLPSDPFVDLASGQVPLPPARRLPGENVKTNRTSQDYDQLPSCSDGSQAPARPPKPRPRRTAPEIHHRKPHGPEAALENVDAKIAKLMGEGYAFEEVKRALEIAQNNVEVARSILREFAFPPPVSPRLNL
Give IC50 for every item shown.
One number for each entry, in µM.

These solved cases illustrate the format of a correct answer.
Cn1c(Br)ccc1C(=O)NC[C@H]1CC2N=C(N)NC2[C@@H](c2c[nH]c(N)n2)[C@@H]1CNC(=O)c1cc(Br)c[nH]1 (stereo partly drawn) = 18
Cn1cccc1C(=O)NC[C@H]1CC2N=C(N)NC2[C@@H](c2c[nH]c(N)n2)[C@@H]1CNC(=O)c1cc(Br)c(Br)n1C (stereo partly drawn) = 18

Moving on to the next molecule.
Ask: Could you tell me which IC50 is on file for Cn1cc(Br)cc1C(=O)NC[C@H]1CC2N=C(N)NC2[C@@H](c2c[nH]c(N)n2)[C@@H]1CNC(=O)c1cc(Br)c[nH]1 (stereo partly drawn) ?
Result: 18
